Recorded values, source PubChem BioAssay (EPA / NIEHS).

target: Cellular tumor antigen p53 (Homo sapiens); assay: TOX21_p53_BLA_p5_ratio: Tox21 HCT-116 p53 Agonism Beta-lactamase Assay, Ratio, Phase 5 (AID 2283599)
Records with an inconclusive call do not appear. Activity calls are given as the source filed them. How the source made its calls: active means hit-call score of the fitted dose curve at least 0.9, where 1 is the maximum; inconclusive means response in the unintended direction; inactive means score below 0.9.
Classes used: active, inactive

>>> assigned_class("CC(C)(C)c1cc(O)c(C(C)(C)C)cc1O")
"active"
>>> assigned_class("C=CCc1ccc(O)c(OC)c1")
"inactive"
>>> assigned_class("Cc1cccc([N+](=O)[O-])c1C")
"inactive"
>>> assigned_class("CNC(=O)[C@H]1O[C@@H](n2cnc3c(NCc4cc(Cl)ccc4OCc4cc(C)no4)ncnc32)[C@H](O)[C@@H]1N")
"inactive"
>>> assigned_class("COc1ccc(S(=O)(=O)N2C(=O)[C@@](c3ccccc3OC)(N3C[C@H](O)C[C@H]3C(=O)N(C)C)c3cc(Cl)ccc32)c(OC)c1")
"active"
>>> assigned_class("Clc1cc(Cl)c(Cl)cc1Cl")
"inactive"
>>> assigned_class("CC(=O)C(C)=CC1C(C)=CCCC1(C)C (configuration not stated)")
"inactive"
>>> assigned_class("CN[C@H]1CC[C@@H](c2ccc(Cl)c(Cl)c2)c2ccc(S(N)(=O)=O)cc21")
"active"
>>> assigned_class("CC(C)c1ccc(C(=O)N=C(N)N)cc1S(C)(=O)=O")
"inactive"
>>> assigned_class("Cc1nc(-c2ccc3c(c2)CCN(CCC2CCC(NC(=O)/C=C/c4ccc(F)cc4)CC2)CC3)no1 (configuration not stated)")
"active"
>>> assigned_class("OC[C@@H](O)[C@@H](O)[C@H](O)[C@H](O)CO")
"inactive"
>>> assigned_class("O=C(OCCCCCOC(=O)c1ccccc1)c1ccccc1")
"inactive"
>>> assigned_class("CC1(C)NC(=O)NC1=O")
"inactive"
>>> assigned_class("NCC1(Cc2noc(=O)[nH]2)CCCCC1")
"inactive"
>>> assigned_class("CCCCCCOCCO")
"inactive"
>>> assigned_class("O=c1c(O)c(-c2ccc(O)c(O)c2)oc2cc(O)cc(O)c12")
"active"
>>> assigned_class("CCCCN(CCCC)CCCC")
"inactive"
>>> assigned_class("Cc1ccc2ncccc2c1")
"inactive"
>>> assigned_class("NCCO")
"inactive"
>>> assigned_class("CCCc1cc(=O)[nH]c(=S)[nH]1")
"inactive"
>>> assigned_class("CCc1c(C(=O)NN2CCCCC2)nn(-c2ccc(Cl)cc2Cl)c1-c1ccc(Br)cc1")
"inactive"
>>> assigned_class("CCCCCCCCCCCC(=O)OC")
"inactive"
>>> assigned_class("CCOC(=O)C(C)(C)Oc1ccc(Cl)cc1")
"inactive"
>>> assigned_class("CCCCc1ccc2c(n1)[C@@H](c1ccc(OC)cc1C[C@H](C)C(=O)O)[C@H](C(=O)O)[C@H]2c1ccc2c(c1)OCO2")
"inactive"
>>> assigned_class("CCOC(=O)CCC(=O)OCC")
"inactive"
>>> assigned_class("Nc1ccc2c(c1)C(=O)c1ccccc1C2=O")
"inactive"
>>> assigned_class("CCCCC(CC)COC(=O)CC(C(=O)OCC(CC)CCCC)S(=O)(=O)O (configuration not stated)")
"active"
>>> assigned_class("COC(=O)c1ccc(O)cc1")
"inactive"
>>> assigned_class("CC(=O)Oc1ccccc1C(=O)O")
"inactive"
>>> assigned_class("C[Si]1(C)O[Si](C)(C)O[Si](C)(C)O[Si](C)(C)O1")
"inactive"
>>> assigned_class("CC(=O)OCCOCCOCCOC(C)=O")
"inactive"
>>> assigned_class("Cc1cccc(C)c1O")
"inactive"
>>> assigned_class("Nc1ccc(S(=O)(=O)c2ccc(N)cc2)cc1")
"inactive"
>>> assigned_class("Oc1ccc2ccccc2c1N=Nc1ccccc1")
"inactive"
>>> assigned_class("CC1(C)CC(N=C=O)CC(C)(CN=C=O)C1 (configuration not stated)")
"inactive"
>>> assigned_class("CNCc1cc(F)ccc1Oc1ccc(Cl)c(Cl)c1")
"inactive"
>>> assigned_class("O=C(N[C@@H](Cc1ccccc1)[C@@H](O)C(=O)N1C[C@@H](O)[C@@H](O)C1)c1cc2cc(Cl)ccc2[nH]1")
"inactive"
>>> assigned_class("Cc1c(C(=O)O)c(O)cc2c1C(=O)c1c(O)c([C@@H]3O[C@H](CO)[C@@H](O)[C@H](O)[C@H]3O)c(O)c(O)c1C2=O")
"inactive"
>>> assigned_class("COc1ccc(C)cc1N")
"inactive"
>>> assigned_class("NS(=O)(=O)c1cc2c(cc1Cl)NCNS2(=O)=O")
"inactive"
>>> assigned_class("Cc1cc(=O)[nH]c(=S)[nH]1")
"inactive"
>>> assigned_class("COc1cc(S(=O)(=O)O)c(C)cc1N=Nc1c(O)ccc2cc(S(=O)(=O)O)ccc12")
"inactive"

---

read-out: Intercellular Adhesion Molecule 1 (ICAM1), ICAM1 (gene 3383); test: BSK_3C_ICAM1: BioMAP Diversity Plus: 3C Assay for Intercellular Adhesion Molecule 1 (ICAM1) Biomarker Activity (AID 2283003); details: primary human endothelial cells (HUVEC); actives raise or lower the signal
Activity calls are given as the source filed them. How the source made its calls: active means hit-call score of the fitted dose curve at least 0.9, where 1 is the maximum; inactive means score below 0.9.
Classes used: TRUE (active), FALSE (inactive)

>>> assigned_class("CCOC(=O)C(C)(C)Oc1ccc(Cl)cc1")
"FALSE"
>>> assigned_class("CN[C@H]1CC[C@@H](c2ccc(Cl)c(Cl)c2)c2ccc(S(N)(=O)=O)cc21")
"TRUE"
>>> assigned_class("CC(=O)OC/C=C(\\C)CCC=C(C)C")
"FALSE"
>>> assigned_class("Cc1ccc2ncccc2c1")
"FALSE"
>>> assigned_class("CCCCC(CC)COC(=O)CC(C(=O)OCC(CC)CCCC)S(=O)(=O)O (centres undefined)")
"TRUE"
>>> assigned_class("Nc1ccccc1N")
"FALSE"
>>> assigned_class("COc1cc(S(=O)(=O)O)c(C)cc1N=Nc1c(O)ccc2cc(S(=O)(=O)O)ccc12")
"FALSE"
>>> assigned_class("C=CCc1ccc(O)c(OC)c1")
"FALSE"
>>> assigned_class("NCCO")
"FALSE"
>>> assigned_class("Cc1cccc([N+](=O)[O-])c1C")
"FALSE"
>>> assigned_class("CCCCCCCCCCCC(=O)OC")
"FALSE"
>>> assigned_class("CCCCCCCCCCC")
"FALSE"
>>> assigned_class("C=CCOC(=O)c1ccccc1C(=O)OCC=C")
"FALSE"
>>> assigned_class("C[C@]12C=CC(=O)C=C1CC[C@@H]1[C@@H]2C(=O)C[C@@]2(C)[C@H]1CC[C@]2(O)C(=O)CO")
"FALSE"

---

read-out: E-selectin (Homo sapiens); assay: BSK_LPS_Eselectin: BioMAP Diversity Plus: LPS Assay for Eselectin Biomarker Activity (AID 2283077); conditions: primary human HUVEC with PBMC; actives raise or lower the signal
The source made the active and inactive calls. Rule for the calls: active = hit-call score of the fitted dose curve at least 0.9, where 1 is the maximum; inactive = score below 0.9.
Classes used: active, inactive

>>> assigned_class("CCCc1cc(=O)[nH]c(=S)[nH]1")
"inactive"
>>> assigned_class("C=CCOC(=O)c1ccccc1C(=O)OCC=C")
"inactive"
>>> assigned_class("Cc1ccc(C)c(O)c1C")
"inactive"
>>> assigned_class("CCCCN(CCCC)CCCC")
"inactive"
>>> assigned_class("Nc1ccc2c(c1)C(=O)c1ccccc1C2=O")
"inactive"
>>> assigned_class("CNCc1cc(F)ccc1Oc1ccc(Cl)c(Cl)c1")
"inactive"
>>> assigned_class("O=C(N[C@@H](Cc1ccccc1)[C@@H](O)C(=O)N1C[C@@H](O)[C@@H](O)C1)c1cc2cc(Cl)ccc2[nH]1")
"inactive"
>>> assigned_class("CCCCCCCCCCCCCCCCCC(=O)O")
"inactive"
>>> assigned_class("CNC(=O)[C@H]1O[C@@H](n2cnc3c(NCc4cc(Cl)ccc4OCc4cc(C)no4)ncnc32)[C@H](O)[C@@H]1N")
"inactive"
>>> assigned_class("Clc1cc(Cl)c(Cl)cc1Cl")
"inactive"
>>> assigned_class("CCOC(=O)CCC(=O)OCC")
"inactive"
>>> assigned_class("NS(=O)(=O)c1cc2c(cc1Cl)NCNS2(=O)=O")
"inactive"
>>> assigned_class("CC(=O)OCCOCCOCCOC(C)=O")
"inactive"
>>> assigned_class("CCCCCCCCCCC")
"inactive"
>>> assigned_class("Cc1ccc(Cl)cc1")
"inactive"
>>> assigned_class("Nc1ccc(S(=O)(=O)c2ccc(N)cc2)cc1")
"inactive"
>>> assigned_class("CC(CO)OC(C)CO (stereo not given) (tested in a mixture with another compound)")
"inactive"
>>> assigned_class("Oc1ccc2ccccc2c1N=Nc1ccccc1")
"inactive"
>>> assigned_class("OC[C@@H](O)[C@@H](O)[C@H](O)[C@H](O)CO")
"inactive"
>>> assigned_class("Cc1ccc(N(C)C)cc1")
"inactive"
>>> assigned_class("COC(=O)c1ccc(O)cc1")
"inactive"
>>> assigned_class("CCCCCCCCCCCCCO")
"inactive"
>>> assigned_class("CCCCC(CC)COC(=O)CC(C(=O)OCC(CC)CCCC)S(=O)(=O)O (stereo not given)")
"active"
>>> assigned_class("CCCCCCCC=O")
"inactive"
>>> assigned_class("CC1(C)CC(N=C=O)CC(C)(CN=C=O)C1 (stereo not given)")
"inactive"
